target-of-assay: T1, recombinant human OX40-Fc (human, UniProt P43489 29-214)
T1 construct: also called rh-OX40-Fc; human OX40 hFC (R & D systems)
T1 sequence: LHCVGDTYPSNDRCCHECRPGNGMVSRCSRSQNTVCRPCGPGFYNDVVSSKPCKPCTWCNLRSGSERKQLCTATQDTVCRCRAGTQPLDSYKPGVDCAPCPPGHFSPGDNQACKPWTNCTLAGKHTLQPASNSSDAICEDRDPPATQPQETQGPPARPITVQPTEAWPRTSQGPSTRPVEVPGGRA
assay-summary: ELISA, OX40-Fc coated, VHH at 1000 nM
Documented OD450 across a set of binders
Quick one: just the number, no unit, thanks!

Worked examples follow.
Quick one: OD450 of pgXX88-19 (VHH, not shown: small tags and cut ends) VHH: EVQLVESGGGLVQAGGSLRLSCVATGRTRSSTYIMAWFRQAPGKERDFVAAISFIGGSPVYTDSVKGRFTISRVIAENTVHLQMNDLTPEDTALYYCAATDSGPLGPSGPSKYEYWGQGTQVTVSS ?
1.69

Quick one: OD450 of pgXX88-81 (VHH, not shown: small tags and cut ends) VHH: EVQLVESGGGLAQPGSSLRLSCTASGTVFSILSATWFRQAPGKAHEARELVAFISSDGVSMHADSVKGRFTISRDNAKSTVYLQMDNLQPEDTAAYYCKLSNSMMGMEYWGRGTQVTVSS ?
0.772

New cases:
Quick one: OD450 of pgXX88-60 (VHH, not shown: small tags and cut ends) VHH: EVQLVESGGGLAQPGGSLRLSCAASGFTFSNYAMGWYRQAPGKEREFVAAIDWSTNALLYGDSVKGRFTISRDNAKNTVFLQMSGLKPEDTALYYCAADRAYHTVVLGPPEGMDYWGKGTQVTVSS ?
0.713

Quick one: OD450 of pgXX88-10 (VHH, not shown: small tags and cut ends) VHH: EVQLVESGGGLVQAGESLRLSCSASGSIRLNAVGWFRQAPVNQRLMVATITHNNSTNYADSVQGRFTIARDDAKNTVTLQMNSLKPEDTAVYMCKVYQLPVPISSHDDYWGQGTQVTVSS ?
1.62
